# testSummary: yeast display, Sf9 membrane polyspecificity reagent, FACS + sequencing; frameworks hold sequencing errors
measuredMetric: polyreactivity (PSR sort gate)

| recordSequence | experimentalValue |
| --- | --- |
| QVQLVESGVGLVQAGGSLRLSCAASGSTFKGYTMGWYRQAPGKERELVAAITYSGGRTYYADSVKGRFTISRDNAKNTVYLQMNSLKPEDTAVYYCAARQQWVKVEYDYWGQGTQVTVSS | high polyreactivity |
| QVQLVESGGGLVQAGGSLRLSCAASGSTFYIYAMGWYRQAPGKERELVARISGSTDYADSVKGRFTISRDNAKNTVYLQMNSLKPEDTAVYYCAARYVYPYWYGDYYWGQGTQVTVSS | low polyreactivity |
| QDQHVESGGGLVQAGGSLRLSCAASGTIFCYYAMGWYRQAPGKERGLVASISWNGTSTYYADSVKGRFTISRDNSKNTVYLQMNCLNPEDTAVYYCNVRFNYRGTYDYWGQGTQVTVSS | low polyreactivity |
| QVQHVESGGGLVQAGGSLRLSCAASGFTFLKNAMGWYRQAPGKERELVAAITSSGGRTYYADSVKGRFTISRDNAKNTVYCQMISLKPEDTAVYYCNKGPLPGYDYWGQGTQVTVSS | high polyreactivity |
| QVQLVESGGGLVQAGGSLRLSCAASGSIYGPYAMGLYRQAPGKERELVAGITRSVGSTYYADSVKGRFTISRDYAKNTVYLQMNSLKPEDTAVYYCNAKWMYSRWAGYDYWGQGTQVTVSS | low polyreactivity |
| QVQLVESGGGLVQAGGSLRLSCAASGRTFYYYYTMGWYRQAPGKERELVAAISRSGSTNYADSVKGRFTISRDNAKNSVYLQMNSLKPEDTAVYYCAKETNRVGRYQWGQGTQVTVSS | low polyreactivity |
| QVQLQESGGGLVQAGGSLRLSCAASGNTSDTGYMGWYRQAPGKERKLVASIDYGSNTYYADSVKVRFTISRDNAKNTVYLQMNSLKPEDTAVYYCAAYYIGDYTLVYWGQGTQVTVSS | high polyreactivity |
| QVQLVEAGGGLVQAGGSLRLSCAASGITYSKYANGWYIQAPWKERELVAAISQRGGSTYYADSVKGRFTISRDNAKNTVYLQMNSLKPEDTAVYYCNAEFYWSIIAYEYWGQGTQVTVSS | high polyreactivity |
| QVQLVESGGGLVQAGGSLRLSCAASGSTFYYNAMGWYRQAPGKERELVAGISGGGSTNYADSVKGRFTISRDNAKNTVYLQMNSLKPEDTAVYYCAARERYRGAIGYDYWGKGTQVTVSS | low polyreactivity |
| QVQLVESGGGLVQAGGSLRLSCAASGITFSRYAMGWYRQAPGKERELVAAITWDGGRTYYADSVKGRFTISRDNAKNTVYLQMNSLKPEDTAVYYCAAGSAWWYYWGQGTQVTVSS | high polyreactivity |
| QVQLVESGGGIVQAGGSLRLSCAASGSTLQYNAMGWYRQAPGKERELVAAITRISGSTYYADSVKGRFTISRDNAKNTVYLQMNSLKPEHTAVYYCAAVSYYYSGYDYWGQGTEVTVSS | high polyreactivity |

---

# testSummary: yeast display, Sf9 membrane polyspecificity reagent, FACS + sequencing; frameworks hold sequencing errors
measuredMetric: polyreactivity (PSR sort gate)

| recordSequence | measuredMetric | experimentalValue |
| --- | --- | --- |
| QVQLVESGGGLVQAGGRLRLSCAASGRIFTYNAMGWYRQAPGKEREFVAAISSGGSTTYADSVKGRFTISRDNAKNTVYLQMNSLKPEDTAVYYCAAGGCRFAIIEYEYWGQGTQVTVSS | polyreactivity (PSR sort gate) | low polyreactivity |
| QVQLVESGGGLVQAGGSLRLAVLPPDLPSTLNDMGWYRQAPGKERELVAAITRGGSTNYADSLKGRFTISRDNAKNTVYLQMNSLKPEDSAVYYCAAPYAGWGDGGDYWGQGTQVTVSS | polyreactivity (PSR sort gate) | low polyreactivity |
| QVQLVESGGALVQAGGTRRLSCAASASTYPYAMGWYRQDPAKERELVAAITWSGGNTYFADSVKGRFTISRDNAKNSVYLQMNSMKPEDTAFYYCAALIGYRVFRYNYWGQGTQLTVSS | polyreactivity (PSR sort gate) | high polyreactivity |
| QVQLVESGGGLVQAGGSLRLSCAASGSTFAAYVMGWYRQAPGKERELVAAISTSGGGTYYADSVKGRFTISRDTAKNTVYLQMNSLKPEDTAVYYCAADYGSGSVSYDYWGQGTQVTVSS | polyreactivity (PSR sort gate) | low polyreactivity |
| QVQLVESGGGLVQAGGSLRLSCAASGSIFQYNVKGWYIQAPGTERELVAAITSGGSTYYADSVKGRFTISRDNAKNTVYLQMNSLKPEDTAVYYCARDIRRKGFRYDYWGQGTQVTVSS | polyreactivity (PSR sort gate) | high polyreactivity |
| QVQIVESGGGLVQAGVSLRLSCAASGSTFETNTMGWYRKAPGKERELVAAITTGGRTYYADSLKGRFSISRDNAKNNVYLQMNSLKPEDTAVYYCAVAYWNRQSLFRMYYWGQGTQVTVSS | polyreactivity (PSR sort gate) | high polyreactivity |
| QVQLVESGGGLVQAGGSLRLSCAASGRIFSKYAMGWYRQAPGKDRELVAAISWSGGRTYYADSVKGRFTISRDNAKNTVYLQMNSLKPEDAALYYCAASFYTGYDYWGQGTQVTVSS | polyreactivity (PSR sort gate) | high polyreactivity |
| QVQLVESGGGLVQAGGSLRLSCAASGRTFQYYAMGWYRQAPGKERELVAAISSRGGSTYYADSVKGRFTISRDNAKNTVYLQMNSLKPEDTAVYYCAAYVLPRQRVRSDYWGQGTQVTVSS | polyreactivity (PSR sort gate) | high polyreactivity |
| QVQLVESGGGLVQAGGSLRLSCAASGSIFTLYAMGWYRQAPGKERELVAAITRSGGSTYYADSVKGRFTISRDNAKNTVYLQMNSLKPEDTAVYYCAADKAPYSTEGDYWGQGTQVTVSS | polyreactivity (PSR sort gate) | high polyreactivity |
| QVQLVESGGGLVQAGGSLRLSCAASGRIFSFNTMGWYRQAPGKERELVAAITSSSARTYYADSVKGRFTISRDNAKNTVYLQMNSLKPEDTAVYYCAADSTLSRYDYWGQGTQVTVSS | polyreactivity (PSR sort gate) | high polyreactivity |
| QVQLVESGGGLVQAGGSLRLSCAASGSTFWANAMGWYRQAPGKERELVAAITSTGITYYADSVKGRFTISRDNAKNTVYLQMNSLKPEDTAVYYCAADGYRYSVYLIRNPMDYWGQGTQVTVSS | polyreactivity (PSR sort gate) | low polyreactivity |
| QVQLVESGGGLVQAGGSLRLSCAASGRIFYSNAMGWYRQAPGKEREFVAAISWSGGGTYYADSVKGRFTISRDNAKNTVYLQMNSLKPEETAVYYCAAVFGYSWAFEYDYWGQGTQVTVSS | polyreactivity (PSR sort gate) | low polyreactivity |
| QVQLVESGGGLVQAGGSLRLSCAASGSTFWAYVMGWYRQAPGKERELVAAISKSGVRTHYADSVKGRFTISRDNAKNTVYLQMNSLKPEDTAVYYCAAGGVGNLDDYWGQVTQVTVSS | polyreactivity (PSR sort gate) | high polyreactivity |
| QVQLVYTLGGLDQAGGSLRVSCYASGRTFVYYPMGWYRQAPGKERELVAAITRSGGRTYYADSVKGRFTISRDNAKNTVYLQKYSMKPEETAVYYCAARYCDNPYWFDYWGQGTQVTVSS | polyreactivity (PSR sort gate) | high polyreactivity |
| QVQLVESGGGLVQAGGSLRLRCAASGLTFAYNTMGWYRQAPGKEREFVASISSSGGNTYYADSVKGRFTISRDNAKNTVYLQMNSLKPEDTAVYYCAAKKKYHYVASYKRFEYWGQGTQVTVSS | polyreactivity (PSR sort gate) | low polyreactivity |
| QVQLVESGGGLVQAGGSLRLSCAASGFTFYKYTMGWYRQAPGKERELVAAISARGGSTYYADSVKGRFTISRDNAKNTVYLQMNSLKPEDTAVYYCAADYWRTYGLGYDYWGQGTQVTVSS | polyreactivity (PSR sort gate) | high polyreactivity |
| QVQLVESGGGLVQAGGSLRLSCAASGRILYQYAMGWYRQAPGKERELVASISGRSGRTRYADSVKGRFTISRDNAKNTVYLQMNSLKPEDTAVYYCNAGSSVLKYDYWGQGTQVTVSS | polyreactivity (PSR sort gate) | low polyreactivity |
| QVQLVESGGGLVQAGGSLRLSCAASGFIFARYAMGWYRQAPGKEREFVAAITWSGGTTYYADSVKGRFTISRDYAKNTVYFQMNSLKPEDTAVYYCAARWGKTLWQYNYWGQGTQVTVSS | polyreactivity (PSR sort gate) | high polyreactivity |
| QVQLVESGGGLVQAGGSLRLSCASSGRTFYSYAMGWYRQAPGKERELVAGITWSGTSTYYADSVKGRFTISRDNWKNTVYLQMYSLKPEDTAVYYCAAATLYSGYDYWGQGTQVSVSS | polyreactivity (PSR sort gate) | low polyreactivity |
| QVQLVESGGGLVQAGGSLRLSCAASGFTFAYYAMGWYRQAPGKERELVAAINWSGTRTSYADSVKGRFTISRDNAKNTVYLQMNSLKPEDSAVYYCAADSSLRYDYWGQGTQVTVSS | polyreactivity (PSR sort gate) | high polyreactivity |
| QLQLVESGGGLVQAGGSLRLSCAASGRIFIYNAMGWYRQAPGKERELVAAINRSGVSTHYADSVKGRFTISRDNAKNTVYLQMNSLKPEDTAVYYCARTVYGARSFDYWGQGTQVTVSS | polyreactivity (PSR sort gate) | low polyreactivity |
